Reported growth by item:
test system: E. coli TESEC Mtb Alr; assay: growth (OD600 after 10 h); higher = more growth (less inhibition); conditions: arabinose 1000 nM; compound 0.1 mM; raw OD600 reference: median of DMSO wells 0.294, cell-free background 0.041
Structures can show the parent of a compound that is named as a salt.
Metric name: growth

Molecule: CCN(CC)C(=S)SSC(=S)N(CC)CC
Tested target: E. coli TESEC Mtb Alr
Recorded number: 0.197
--
Molecule: CCCCCN(CCCCC)C(=O)C(CCC(=O)O)NC(=O)c1ccc(Cl)c(Cl)c1 (centres undefined) [Lorglumide sodium salt]
Tested target: E. coli TESEC Mtb Alr
Recorded number: 0.158
--
Molecule: CC1(C)O[C@@H]2[C@@H](CO[C@@]3(COS(N)(=O)=O)OC(C)(C)O[C@@H]23)O1 [Topiramate]
Tested target: E. coli TESEC Mtb Alr
Recorded number: 0.291
--
Molecule: CN(C)CCCSC(=N)N [Dimaprit dihydrochloride]
Tested target: E. coli TESEC Mtb Alr
Recorded number: 0.308
--
Molecule: CCCCC(CC)CN1CN(CC(CC)CCCC)CC(C)(N)C1 (centres undefined)
Tested target: E. coli TESEC Mtb Alr
Recorded number: 0.259
--
Molecule: CN1CCN(C(c2ccccc2)c2ccccc2)CC1 [Cyclizine hydrochloride]
Tested target: E. coli TESEC Mtb Alr
Recorded number: 0.278
--
Molecule: CCOC(=O)c1ccc(OC(=O)CCCCCNC(=N)N)cc1 [Gabexate mesilate]
Tested target: E. coli TESEC Mtb Alr
Recorded number: 0.179
--
Molecule: C[C@H](CCC(=O)O)[C@H]1CC[C@H]2[C@@H]3CC[C@@H]4C[C@H](O)CC[C@]4(C)[C@H]3CC[C@]12C
Tested target: E. coli TESEC Mtb Alr
Recorded number: 0.312
--
Molecule: O=C(Nc1cccc2c(=O)cc(-c3nnn[nH]3)oc12)c1ccc(OCCCCc2ccccc2)cc1
Tested target: E. coli TESEC Mtb Alr
Recorded number: 0.238

* * *

test system: E. coli TESEC Mtb DapB; assay: growth (OD600 after 10 h); higher = more growth (less inhibition); conditions: arabinose induction (level): High; compound 0.1 mM; raw OD600 reference: median of DMSO wells […], cell-free background 0.041
Structures can show the parent of a compound that is named as a salt.
Reported growth by item:
Metric name: growth

Molecule: CO[C@@H]1[C@@H](O[C@@H]2O[C@H](C)[C@@H](O[C@H]3C[C@@](C)(O)[C@@H](OC(=O)CC(C)C)[C@H](C)O3)[C@H](N(C)C)[C@H]2O)[C@@H](CC=O)C[C@@H](C)[C@@H](O)/C=C/C=C/C[C@@H](C)OC(=O)C[C@H]1OC(C)=O [Josamycin]
Metric name: growth
Recorded number: 0.0494

Molecule: Cc1cc(CC(=O)O)n(C)c1C(=O)c1ccc(Cl)cc1 [Zomepirac sodium salt]
Metric name: growth
Recorded number: 0.187

Molecule: C[C@H](O)C(=O)Nc1c(I)c(C(=O)NC(CO)CO)c(I)c(C(=O)NC(CO)CO)c1I [Iopamidol]
Metric name: growth
Recorded number: 0.221

Molecule: CN1C(C(=O)Nc2ccccn2)=C(O)c2sccc2S1(=O)=O [Tenoxicam]
Metric name: growth
Recorded number: 0.185

Molecule: CCC[C@@H]1C[C@@H](C(=O)N[C@@H]([C@H]2O[C@H](SC)[C@H](O)[C@@H](O)[C@H]2O)[C@H](C)Cl)N(C)C1 [Clindamycin hydrochloride]
Metric name: growth
Recorded number: 0.0755

Molecule: CCN(CC)CCOc1ccc(C(=C(Cl)c2ccccc2)c2ccccc2)cc1 [Clomiphene citrate (Z,E)]
Metric name: growth
Recorded number: 0.0485

* * *

Reported growth by item:
tested on: E. coli TESEC Mtb Alr; assay: growth (OD600 after 10 h); higher = more growth (less inhibition); settings: arabinose 10000000 nM; compound 0.1 mM; raw OD600 reference: median of DMSO wells […], cell-free background 0.052
Structures can show the parent of a compound that is named as a salt.

Molecule: CCN(CC)CCNC(=O)c1ccc(N)cc1 [Procainamide hydrochloride]
growth: 0.364
--
Molecule: C[C@@H]1C[C@H]2[C@@H]3C[C@H](F)C4=CC(=O)C=C[C@]4(C)[C@@]3(F)[C@@H](O)C[C@]2(C)[C@@]1(O)C(=O)COC(=O)C(C)(C)C [Flumethasone pivalate]
growth: 0.373
--
Molecule: O=c1oc2ccccc2c(O)c1Cc1c(O)c2ccccc2oc1=O
growth: 0.0655
--
Molecule: CC[C@]12CCCN3CCc4c(n(c5ccccc45)C(=O)C1)[C@@H]32 [Eburnamonine (-)]
growth: 0.277
--
Molecule: CC(Oc1ccccc1)C(=O)N[C@@H]1C(=O)N2[C@@H]1SC(C)(C)[C@@H]2C(=O)O (stereo partly specified) [Phenethicillin potassium salt]
growth: 0.367
--
Molecule: OCCN1CCN(CCCN2c3ccccc3Sc3ccc(Cl)cc32)CC1
growth: 0.0538
--
Molecule: N=C(NCCCCCCNC(=N)NC(=N)Nc1ccc(Cl)cc1)NC(=N)Nc1ccc(Cl)cc1
growth: 0.054
--
Molecule: O=C1C(O)=C(O)C(=O)C(O)=C1O [Tetrahydroxy-1,4-quinone hydrate]
growth: 0.333
--
Molecule: CN1[C@@H]2CC[C@H]1C[C@@H](OC(c1ccccc1)c1ccccc1)C2 [Benztropine mesylate]
growth: 0.288
--
Molecule: CN(C)c1nc(N(C)C)nc(N(C)C)n1
growth: 0.317
--
Molecule: CN(CCCCCCCCCCN(C)C(=O)Oc1cccc([N+](C)(C)C)c1)C(=O)Oc1cccc([N+](C)(C)C)c1 [Demecarium bromide]
growth: 0.0536
--
Molecule: Cc1c(NC(=O)c2cccnc2)c(=O)n(-c2ccccc2)n1C
growth: 0.339
--
Molecule: CCCOc1ccc(C(=O)OCCN(CC)CC)cc1N [Proparacaine hydrochloride]
growth: 0.354
--
Molecule: CCOC(=O)C1=C(C)NC(C)=C(C(=O)OC)C1c1cccc([N+](=O)[O-])c1 (stereo unspecified)
growth: 0.221
--
Molecule: CC[C@@H]1C(=O)OC[C@@H]1Cc1cncn1C [Pilocarpine nitrate]
growth: 0.319
--
Molecule: CCOc1ccc2ccccc2c1C(=O)N[C@@H]1C(=O)N2[C@@H]1SC(C)(C)[C@@H]2C(=O)O [Nafcillin sodium salt monohydrate]
growth: 0.343

* * *

test system: E. coli TESEC Mtb Asd; experiment: growth (OD600 after 10 h); higher = more growth (less inhibition); conditions: arabinose induction (level): High; compound 0.1 mM; raw OD600 reference: median of DMSO wells 0.331, cell-free background 0.041
Counter-ions that a name gives are not always drawn.
Reported growth by item:

Compound: CCN1C(=O)NC(c2ccccc2)C1=O (stereo not given) [Ethotoin]
growth: 0.434

Compound: NCCCC[C@H](N[C@@H](CCc1ccccc1)C(=O)O)C(=O)N1CCC[C@H]1C(=O)O [Lisinopril]
growth: 0.35

Compound: CN1CCC(=C2c3ccccc3CCc3sccc32)CC1 [Pizotifen malate]
growth: 0.148

Compound: c1coc(CNc2ncnc3nc[nH]c23)c1 [6-Furfurylaminopurine]
growth: 0.341

Compound: CC(C)Cn1cnc2c(N)nc3ccccc3c21 [Imiquimod]
growth: 0.209

Compound: Cc1ccc2c(c1)c1c3n2CCNC3CCC1 (stereo not given) [Pirlindole mesylate]
growth: 0.177

Compound: COC(=O)C1=C(C)NC(C)=C(C(=O)OCCN(C)Cc2ccccc2)C1c1cccc([N+](=O)[O-])c1 (stereo not given) [Nicardipine hydrochloride]
growth: 0.054

Compound: Nc1cc(-c2ccncc2)c[nH]c1=O [Amrinone]
growth: 0.463

Compound: CCN(CC)CCNC(=O)COc1ccc(OC)cc1 [Mefexamide hydrochloride]
growth: 0.304

Compound: COC(=O)CCc1ccc(OCC(O)CNC(C)C)cc1 (stereo not given) [Esmolol hydrochloride]
growth: 0.242

Compound: COc1c2occc2c(OC)c2c(=O)cc(C)oc12 [Khellin]
growth: 0.317

Compound: CC(=O)[C@H]1CC[C@H]2[C@@H]3CC=C4C[C@@H](O)CC[C@]4(C)[C@H]3CC[C@]12C [Pregnenolone]
growth: 0.168

Compound: CCCCOC(=O)c1ccc(N)cc1 [Butamben]
growth: 0.566

Compound: Cc1cn[nH]c1 [Fomepizole]
growth: 0.233

Compound: CCN(CCCc1ccccc1)CCCc1ccccc1 [Alverine citrate salt]
growth: 0.211

Compound: CCOc1ccc(NC(C)=O)cc1 [Phenacetin]
growth: 0.345

Compound: CC(C)(C)NCC(O)c1cc(O)cc(O)c1 (stereo not given) [Terbutaline hemisulfate]
growth: 0.293

Compound: O=C1CCc2cc(OCCCCc3nnnn3C3CCCCC3)ccc2N1 [Cilostazol]
growth: 0.225

Compound: CC(=O)OCC(=O)[C@@]1(O)CC[C@H]2[C@@H]3CCC4=CC(=O)C=C[C@]4(C)[C@@]3(F)[C@@H](O)C[C@@]21C [Isoflupredone acetate]
growth: 0.348

Compound: O=C(O)c1cccnc1 [Niacin]
growth: 0.397

Compound: CCN(CC)C(=O)c1ccc(O)c(OC)c1 [Ethamivan]
growth: 0.388

Compound: NC[C@@H]1O[C@H](O[C@H]2[C@@H](O)[C@H](O[C@@H]3[C@@H](O)[C@H](N)C[C@H](N)[C@H]3O[C@H]3O[C@H](CO)[C@@H](O)[C@H](O)[C@H]3N)O[C@@H]2CO)[C@H](N)[C@@H](O)[C@@H]1O [Paromomycin sulfate]
growth: 0.496

Compound: COc1ccc(-c2cc(=O)c3c(O)cc(O[C@@H]4O[C@H](CO[C@@H]5O[C@@H](C)[C@H](O)[C@@H](O)[C@H]5O)[C@@H](O)[C@H](O)[C@H]4O)cc3o2)cc1O [Diosmin]
growth: 0.421

Compound: CCCC(=O)Nc1ccc(OCC(O)CNC(C)C)c(C(C)=O)c1 (stereo not given) [Acebutolol hydrochloride]
growth: 0.264

Compound: Cc1cn([C@H]2C=C[C@@H](CO)O2)c(=O)[nH]c1=O [Stavudine]
growth: 0.157

Compound: Cc1ccc(S(=O)(=O)NC(=O)NN2CC3CCCC3C2)cc1 (stereo not given) [Gliclazide]
growth: 0.298

Compound: CN[C@H]1CC[C@@H](c2ccc(Cl)c(Cl)c2)c2ccccc21 [Sertraline]
growth: 0.0545

Compound: CO/N=C(\C(=O)N[C@@H]1C(=O)N2C(C(=O)O)=C(COC(C)=O)CS[C@H]12)c1csc(N)n1 [Cefotaxime sodium salt]
growth: 0.0625

Compound: COc1ccnc(C[S+]([O-])c2nc3cc(OC(F)F)ccc3[nH]2)c1OC (stereo not given) [Pantoprazole sodium]
growth: 0.308

Compound: CC(=O)CC(c1ccc([N+](=O)[O-])cc1)c1c(O)c2ccccc2oc1=O (stereo not given) [Acenocoumarol]
growth: 0.26

Compound: C[C@]12C=CC(=O)C=C1CC[C@@H]1[C@@H]2C(=O)C[C@@]2(C)[C@H]1CC[C@]2(O)C(=O)CO [Prednisone]
growth: 0.237

Compound: Cn1c([N+](=O)[O-])cnc1COC(N)=O [Ronidazole]
growth: 0.241

Compound: C[N+]1(C)CCC(=C(c2ccccc2)c2ccccc2)CC1 [Diphemanil methylsulfate]
growth: 0.203

Compound: Clc1ccccc1CN1CCc2sccc2C1 [Ticlopidine hydrochloride]
growth: 0.236

Compound: CCOC(=O)C1=C(COCCN)NC(C)=C(C(=O)OC)C1c1ccccc1Cl (stereo not given) [Amlodipine]
growth: 0.132
